test: Solubility of UV absorber in oil comprising ionic liquid; assay type: physicochemical; conditions: oil/ionic liquid mixture, 21 °C, oil or lipid, thermodynamic from solid, Oil/IL 60/40 weight ratio, IL N-ethyl-N′-ethylimidazolium heptanoate, read-out: Solubility of Tinosorb ® S with Cetiol ® B as oil
Measurement name: solubility (mg/mL)
# number only, unit mg/mL dropped from output

Any idea what its solubility is? The molecule is CCCCC(CC)COc1ccc(-c2nc(-c3ccc(OC)cc3)nc(-c3ccc(OCC(CC)CCCC)cc3O)n2)c(O)c1 (stereo not shown)
21.9

* * *

assay: Solubility of UV absorber in oil comprising ionic liquid; assay type: physicochemical; settings: oil/ionic liquid mixture, 21 °C, oil or lipid, thermodynamic from solid, Oil/IL 60/40 weight ratio, IL N-butyl-N′-methylimidazolium acetate, read-out: Solubility of Tinosorb ® S with Cetiol ® B as oil
Measurement name: solubility (mg/mL)
# number only, unit mg/mL dropped from output

Any idea what its solubility is? The molecule is CCCCC(CC)COc1ccc(-c2nc(-c3ccc(OC)cc3)nc(-c3ccc(OCC(CC)CCCC)cc3O)n2)c(O)c1 (stereo not shown)
14.3
